- Tested system: ROCKII (Homo sapiens, UniProt O75116)
- Construct: ROCKII(5–554), constitutively active recombinant
- Sequence (O75116 5-554): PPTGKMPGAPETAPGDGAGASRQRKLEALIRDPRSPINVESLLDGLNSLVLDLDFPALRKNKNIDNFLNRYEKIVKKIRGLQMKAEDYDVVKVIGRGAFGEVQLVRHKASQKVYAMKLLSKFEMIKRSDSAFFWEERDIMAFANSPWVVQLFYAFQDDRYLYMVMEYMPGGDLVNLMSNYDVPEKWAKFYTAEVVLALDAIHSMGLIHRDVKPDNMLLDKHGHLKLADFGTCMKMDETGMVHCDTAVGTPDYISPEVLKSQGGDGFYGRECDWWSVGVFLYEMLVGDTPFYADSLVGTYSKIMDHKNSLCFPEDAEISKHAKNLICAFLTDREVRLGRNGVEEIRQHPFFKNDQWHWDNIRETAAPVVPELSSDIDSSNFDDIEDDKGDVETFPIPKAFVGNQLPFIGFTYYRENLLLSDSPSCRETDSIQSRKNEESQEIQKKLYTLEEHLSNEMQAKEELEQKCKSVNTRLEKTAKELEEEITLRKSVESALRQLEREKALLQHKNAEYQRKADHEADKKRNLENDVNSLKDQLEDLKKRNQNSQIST
- Test method notes: […]-phosphoryl transfer kinase assay with LC20 peptide; steady-state kinetics
Value type: Ki (nM)
# unit: nM | format: bare number

**Q:** # query: Ki | item O=C1OC(c2ccc(Cl)c([N+](=O)[O-])c2)=N/C1=C\c1cccnc1 | system: ROCKII (Homo sapiens, UniProt O75116)
**A:** 132
